tested on: PC-3; assay: NCI tumour cell line growth inhibition, 48 h
The source made the active and inactive calls. Cut-off read from the data, not from the text of the source: active = GI50 up to about 1.1 µM and inactive = higher.
ASSAY_METRIC: GI50

Below are 4 molecules. Give each one its GI50.
1. CCc1cccc(CC)c1Nc1nc2c(s1)C(=O)c1ccccc1C2=O
2. CCOC(=O)C(C(=O)COC(C)(C)C)[C@@H]1C=C[C@H](OC(C)=O)C1 (stereo not given in full)
3. CC(=O)OCC1OC(n2c(C)c(C(C)=O)c(-c3ccc(Cl)cc3)c(C#N)c2=S)C(OC(C)=O)C(OC(C)=O)C1OC(C)=O (stereo not given)
4. N#CCC1C2CC3C(C2=O)C13 (stereo not given)

["13.3 µM (inactive)", "> 100 µM (inactive)", "> 100 µM (inactive)", "> 100 µM (inactive)"]

Below are 6 molecules. Give each one its GI50.
1. O=C1/C(=C/c2ccc(O)cc2)CC/C1=C\c1ccc(O)cc1
2. COC1OC2COC(C)(C)OC2C2OC(C)(C)OC12 (stereo not given)
3. CSC1=C(C)C(/C=N/Nc2ccc([N+](=O)[O-])cc2)=C(C)N(c2ccccc2)S1(=O)=O
4. CC(=O)/C=N/CC(=O)O
5. CC(NC(=O)Cc1ccc(OP(=O)(OCc2ccc([N+](=O)[O-])o2)N(C)CCCCCl)cc1)c1ccc(OCC2CCCCC2)c(C(N)=O)c1 (stereo not given)
6. Cc1ccc(S(=O)(=O)n2c3ccc(Br)cc3c3nc4ccccc4nc32)cc1

59.6 µM (inactive)
80.5 µM (inactive)
25.9 µM (inactive)
> 100 µM (inactive)
2.88 µM (inactive)
> 100 µM (inactive)
